# Test system: HS 578T breast
# method_summary: NCI tumour cell line growth inhibition, 48 h
assay_endpoint: GI50

> print(dat)
                                    compound     observed
 1  CCCCCCCC(=O)SCC/C=C/[C@@H]1CC(=O)NCc2cccc(n2)C2=N[C@@](C)(CS2)C(=O)N[C@@H](C(C)C)C(=O)N1       378 nM
 2  C[C@@H](CS(C)(=O)=O)Nc1ncc2cc(Oc3ccc(F)cc3F)c(=O)n(C)c2n1   > 25000 nM
 3         CC(=O)[O][Hg][c]1c(N)c(C)cc(C)c1F      1600 nM
 4  COc1cc(/C=C/c2cc(/C=C/c3ccc(O)c(OC)c3)n(C(=O)Nc3ccc(F)cc3)n2)ccc1O       689 nM
 5  O=C1NNC(=O)c2ccccc2SSc2ccccc2C(=O)NNC(=O)c2ccccc2SSc2ccccc21  > 100000 nM
 6     Oc1ccc(Cl)cc1-c1cc(-c2ccccc2Cl)[nH]n1      7850 nM
 7    Cc1cc2nc(C(Cl)Cl)nc(-c3ccc(Cl)cc3)n2n1      1340 nM
 8  COc1cc2c(c(OC)c1O)C(=O)C(OC)C(c1ccc(O)c(O)c1)O2 (stereo not given)      88.9 nM
 9  CCc1ccc2c(c1)C(=O)c1c-2n(CCCBr)c(=O)c2cc([N+](=O)[O-])ccc12     18200 nM
10  NC1CCC(Nc2nc(NCc3ccc(-c4ccco4)nc3)c3ncn(C4CCCC4)c3n2)CC1 (stereo not given)      20.5 nM

* * *

Catalogue of TGI readings, one per entry.
# Tested on: SN12C renal
# method_summary: NCI tumour cell line growth inhibition, 48 h
assay_endpoint: TGI (µM)

> print(dat)
                                    compound  units.label  qualifier.operator  observed
 1     O=C1NC(N/N=C/c2ccccc2)=N/C1=C\c1ccco1           µM                   >       100
 2  CC(=O)OC(C)C(=O)C1c2cccc(O)c2C(=O)c2c(O)cc(C)cc21 (stereo not given)           µM                   =      2.24
 3  Cc1nnc2n1N=C(c1ccccc1)/C(=C/c1ccc(-c3ccc(Cl)cc3)o1)S2           µM                   =      35.7
 4         COc1ccc(NC(=S)Nc2cc(C)cc(C)n2)cc1           µM                   >       100
 5  CC(=O)Oc1c(C)c2c(c3ncccc13)OC(C)C2 (stereo not given)           µM                   =      30.1
 6         Cc1cc(=O)[nH]c2cc3oc4ccccc4c3cc12           µM                   >       100
 7  COc1ccc(-c2cc(=O)c3ccc(O)cc3o2)c(OC)c1OC           µM                   >       100
 8  O=[N+]([O-])c1cccc2nc3ccccc3c(NCCCCNc3c4ccccc4nc4cccc([N+](=O)[O-])c34)c12           µM                   =      0.38
 9  COc1ccc(-n2/c(=N/C(=S)N(C)C)ss/c2=N\C(=S)N(C)C)cc1           µM                   >       100
10  CC1=CC(=O)[C@@H](O)[C@]2(C)[C@H]3[C@@]4(O)OC[C@]35[C@H]([C@@H](C)[C@H]4O)[C@@H](OC(=O)C(C)(C)CO)C(=O)O[C@@H]5C[C@@H]12           µM                   =       4.5
